Provenance of the data: ChEMBL document CHEMBL4808148

Biological target: Protein deacetylase HDAC6 (Homo sapiens)
Settings: at 10 µM
The campaign covered roughly 5,600 compounds. About 390 (7%) showed an effect of 50% or more. Shown is part of a subset that was picked to be rich in strong results. Residues, ends and D or L forms follow the SMILES beside them.
OBSERVABLE: inhibition (%)
Expressed in %, but write only the number.

Previously resolved entries follow.
{"columns": ["MOLECULE", "REPORTED VALUE"],
 "data": [
  ["CC(C)(C)c1[nH]cnc1/C=c1\\[nH]c(=O)/c(=C/c2ccccc2)[nH]c1=O", 77.4],
  ["CC(C)CC(NC(=O)C1CCCN1)C(=O)NCC(N)=O (stereo not drawn) (H-Pro-Leu-Gly-NH2; configuration not given here)", 40.6],
  ["CCOC(=O)c1ccc(-c2ccc(OC(=O)N(C)Cc3cccc(-c4ccncc4)c3)cc2)cc1", 5],
  ["OC[C@H]1O[C@H](O[C@H]2O[C@H](CO)[C@@H](O)[C@H](O)[C@H]2O)[C@H](O)[C@@H](O)[C@@H]1O", -9.27],
  ["O=C1NC(=O)c2c1c1c3ccccc3n3c1c1c2c2ccccc2n1C1CCC3O1", 1.84],
  ["CCOC(=O)C(=O)Nc1cccc(OC)c1C(N)=O", 24.8],
  ["N[C@@H]1CCN(c2cccnc2)C1", 18.5],
  ["CN1c2c(oc(=O)n(-c3ccccn3)c2=O)-c2ccccc2S1(=O)=O", 16.6]
]}

Let's switch to this molecule now.
The value of inhibition measured for the molecule CC(OC(=O)NCC1(CC(=O)O)CCCCC1)OC(=O)C(C)C (centres undefined) turned out to be 3.02
